Target: delF508-CFTR-HRP (Homo sapiens, UniProt P13569, DEL508-508)
Sequence (P13569 with tags, fused parts or gaps DEL508-508): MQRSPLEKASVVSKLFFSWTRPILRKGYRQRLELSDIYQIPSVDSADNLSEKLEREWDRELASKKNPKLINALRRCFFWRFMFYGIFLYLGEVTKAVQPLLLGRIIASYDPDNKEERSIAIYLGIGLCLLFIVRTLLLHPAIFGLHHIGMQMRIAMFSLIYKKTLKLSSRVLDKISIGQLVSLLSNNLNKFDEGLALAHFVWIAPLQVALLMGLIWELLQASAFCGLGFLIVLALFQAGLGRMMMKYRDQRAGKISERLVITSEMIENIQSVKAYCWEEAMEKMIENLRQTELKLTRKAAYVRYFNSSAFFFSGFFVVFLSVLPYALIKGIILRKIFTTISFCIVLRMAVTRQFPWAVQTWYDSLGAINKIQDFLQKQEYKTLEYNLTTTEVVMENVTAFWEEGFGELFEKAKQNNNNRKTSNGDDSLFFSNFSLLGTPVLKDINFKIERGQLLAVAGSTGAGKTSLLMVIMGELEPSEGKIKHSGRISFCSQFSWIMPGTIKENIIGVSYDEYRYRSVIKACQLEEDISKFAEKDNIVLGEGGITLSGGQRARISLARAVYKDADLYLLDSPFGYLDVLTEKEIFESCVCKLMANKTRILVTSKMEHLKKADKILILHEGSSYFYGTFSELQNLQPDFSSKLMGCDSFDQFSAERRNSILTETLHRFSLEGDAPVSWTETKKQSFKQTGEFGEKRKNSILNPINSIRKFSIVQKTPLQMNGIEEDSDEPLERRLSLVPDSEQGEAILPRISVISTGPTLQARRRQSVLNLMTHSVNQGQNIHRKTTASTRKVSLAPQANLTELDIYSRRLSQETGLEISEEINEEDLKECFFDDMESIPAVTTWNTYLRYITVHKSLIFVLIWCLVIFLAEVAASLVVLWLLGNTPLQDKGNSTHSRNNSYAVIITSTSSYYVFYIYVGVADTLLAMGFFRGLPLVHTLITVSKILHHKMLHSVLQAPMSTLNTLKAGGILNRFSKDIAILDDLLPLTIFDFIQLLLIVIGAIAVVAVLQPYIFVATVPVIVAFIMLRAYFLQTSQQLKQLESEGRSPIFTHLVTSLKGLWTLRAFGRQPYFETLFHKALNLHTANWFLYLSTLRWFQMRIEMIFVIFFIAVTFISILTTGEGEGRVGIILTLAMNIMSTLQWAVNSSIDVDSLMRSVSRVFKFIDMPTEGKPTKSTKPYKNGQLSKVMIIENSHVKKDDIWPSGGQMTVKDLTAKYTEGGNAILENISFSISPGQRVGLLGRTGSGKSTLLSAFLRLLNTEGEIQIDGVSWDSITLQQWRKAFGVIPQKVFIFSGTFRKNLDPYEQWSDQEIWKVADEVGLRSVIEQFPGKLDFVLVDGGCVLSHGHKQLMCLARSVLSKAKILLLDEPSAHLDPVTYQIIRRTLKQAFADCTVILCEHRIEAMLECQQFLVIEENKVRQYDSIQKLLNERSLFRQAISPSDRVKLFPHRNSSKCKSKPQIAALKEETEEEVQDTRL
Experiment: Measurement of delF508-CFTR-HRP surface expression in CFBE41o- cells (HRP luminescence)
Conditions: mean of at least two replicates
Endpoint Label: pEC50
One number for each entry, as −log10 of the molar value.

Solved cases below.
Compound: Cc1ccc(C2CCCCC2)c(OC2(C(=O)NS(=O)(=O)c3cccc(N4CCC5(CCCC5N)CC4)n3)CC2)c1 (single isomer, unassigned) [Example 2-32-2]
Assay System: delF508-CFTR-HRP (Homo sapiens, UniProt P13569, DEL508-508)
Data Value: 5.72

Compound: Cc1ccc(C2CCC(F)(F)CC2)c(OC2(C(=O)NS(=O)(=O)c3cccc(N4CCCC(CO)C4)n3)CC2)c1 (single isomer, unassigned) [Example 3-3-1]
Assay System: delF508-CFTR-HRP (Homo sapiens, UniProt P13569, DEL508-508)
Data Value: 5.54

Compound: O=C(NS(=O)(=O)c1cccc(N2CCC(O)(C(F)(F)F)CC2)n1)C1(Oc2cc(Cl)ccc2N2CC3(CCCCC3)C2)CC1
Assay System: delF508-CFTR-HRP (Homo sapiens, UniProt P13569, DEL508-508)
Data Value: 6.22

Compound: Cc1ccc(C2CCCCC2)c(OC2(C(=O)NS(=O)(=O)c3cccc(N4CCC(CO)(NC(=O)OC(C)(C)C)CC4)n3)CC2)c1
Assay System: delF508-CFTR-HRP (Homo sapiens, UniProt P13569, DEL508-508)
Data Value: 5.65

Compound: Cc1ccc(C2CCCCC2)c(OC2(C(=O)NS(=O)(=O)c3cccc(N4CCNCC4)n3)CC2)c1
Assay System: delF508-CFTR-HRP (Homo sapiens, UniProt P13569, DEL508-508)
Data Value: 5.49

Compound: Cc1ccc(C2CCCCC2)c(OC2(C(=O)NS(=O)(=O)c3cccc(N[C@H]4C[C@@H](O)C4)n3)CC2)c1
Assay System: delF508-CFTR-HRP (Homo sapiens, UniProt P13569, DEL508-508)
Data Value: 5.68

Compound: O=C(NS(=O)(=O)c1cccc(N2C[C@H]3CC[C@@H](O)[C@H]3C2)n1)C1(Oc2cc(Cl)ccc2N2CC3(CCCCC3)C2)CC1
Assay System: delF508-CFTR-HRP (Homo sapiens, UniProt P13569, DEL508-508)
Data Value: 5.87

Compound: CC(C)Cc1ccc(Cl)cc1OC1(C(=O)NS(=O)(=O)c2cccc(NC[C@H](C)O)n2)CC1
Assay System: delF508-CFTR-HRP (Homo sapiens, UniProt P13569, DEL508-508)
Data Value: 5.51

Input: Fill blank: measured pEC50 of the compound `Cc1ccc(C2CCCCC2)c(OC2(C(=O)NS(=O)(=O)c3cccc(N4CC5(CCN5C(=O)OC(C)(C)C)C4)n3)CC2)c1` is ____.
Output: 5.75
